biological target: recombinant GTase A41 (Arabidopsis thaliana); construct: made in house; host or cells: E. coli; assay: Specific activity of recombinant GTase producing glucose ester against lignin precursors (HPLC); assay type: biochemical; settings: 5 mM UDPG, 0.2 μg GTase, 200 μl, 20° C., 30 min
Sequence (Q5XF20 7-490): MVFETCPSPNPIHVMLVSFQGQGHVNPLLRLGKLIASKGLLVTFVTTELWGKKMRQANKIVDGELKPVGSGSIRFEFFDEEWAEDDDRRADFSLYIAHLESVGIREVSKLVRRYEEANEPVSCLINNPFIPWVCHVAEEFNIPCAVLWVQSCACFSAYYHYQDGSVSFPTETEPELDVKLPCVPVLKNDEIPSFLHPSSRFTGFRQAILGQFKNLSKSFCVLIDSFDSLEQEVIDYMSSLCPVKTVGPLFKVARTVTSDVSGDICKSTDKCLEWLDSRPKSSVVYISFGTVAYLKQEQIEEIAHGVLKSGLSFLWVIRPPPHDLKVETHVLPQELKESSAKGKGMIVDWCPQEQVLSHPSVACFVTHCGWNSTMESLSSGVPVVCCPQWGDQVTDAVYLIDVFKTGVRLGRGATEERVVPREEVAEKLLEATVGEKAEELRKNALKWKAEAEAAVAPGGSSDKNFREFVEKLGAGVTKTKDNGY
experimentalEndpoint: Specific activity of A41 (substrate converted to glucose ester) (nkat/mg)
Kindly provide the numeric value in nkat/mg only, without the unit symbol.

# annotated cases, reported Specific activity of A41 (substrate converted to glucose ester) shown
>>> print(df.to_string())
                       molecule  resultvalue
0             O=C(O)C=Cc1ccccc1         0.30
1  COc1cc(/C=C/C(=O)O)cc(OC)c1O         5.35

Problem: Would you mind telling me what Specific activity of A41 (substrate converted to glucose ester) value was observed for `O=C(O)/C=C/c1ccc(O)cc1` ?
Solution: 13.53

Problem: Item: `COc1cc(/C=C/C(=O)O)ccc1O`
Solution: 6.64

From: patent US7335814B2
